Measured pEC50, listed per entry.
Biological target: T1, human TIGIT over-expressed on cells (human, UniProt Q495A1 22-244)
T1 construct: also called CHO-K1/human TIGIT cells; CHO cells expressing human TIGIT
T1 sequence: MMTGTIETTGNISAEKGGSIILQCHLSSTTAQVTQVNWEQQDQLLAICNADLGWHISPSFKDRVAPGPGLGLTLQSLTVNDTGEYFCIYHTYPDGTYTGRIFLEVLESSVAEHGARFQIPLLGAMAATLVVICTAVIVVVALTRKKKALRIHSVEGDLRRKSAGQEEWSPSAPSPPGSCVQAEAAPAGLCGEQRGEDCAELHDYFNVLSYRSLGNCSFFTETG
Assay: FACS, CHO-K1 cells over-expressing human TIGIT
Interpret pEC50 as the negative base-10 log of the concentration measured in mol/L.

Request: Name the reported pEC50 value associated with the binder 139E2C2D2 (antibody, V domains shown, Mouse monoclonal antibody; also called mouse anti-human TIGIT monoclonal antibody 139E2C2D2) VH: EVQLVESGGDLVKPGGSLKLSCAASGFTFSSYGMSWVRQTPDKRLEWVAIISSGGNYTYYPDSVKGRFTISRDNAKNTLYLQMSSLKSEDTAMYYCARQIHYFFAMDYWGQGTSVTVSS VL: DIQMTQSPASLSVSVGETVTITCRASENIYSNLAWYQQKQGKSPQLLVYAATNLADGAPSRFSGSRSGTQYSLKINSLQSEDFGSYYCQHFWGTAYTFGGGTKLEIK
Response: 9.43

Request: # repeat for 64G1E9B4 (antibody, V domains shown, Mouse monoclonal antibody; also called mouse anti-human TIGIT monoclonal antibody 64G1E9B4) VH: EVQLQQSGPELVKPGASVKISCKTSGYTFTEHVIHWVKQSHGKSLEWIGGFNPNHDGTIYNQIFRGKATLTVDKSSSTAYMELRSLTSEDSAVYFCTRAAKLLFAMDYWGQGTSVTVSS VL: DIVMTQSHKFMSTSIGDRVSITCKASQHVSNAVVWYQQKPGQSPKLLIYSPSYRFTGVPDRFTGSGSGTDFTFTISSVQAEDLAVYYCQQHYSTPWTFGGGTKLEIK
Response: 9.21

Request: # repeat for 48B5G4E12 (antibody, V domains shown, Mouse monoclonal antibody; also called mouse anti-human TIGIT monoclonal antibody 48B5G4E12) VH: QVQLQQPGAELVKPGASVKMSCKASGYTFTSYNMHWVKQTPGQGLEWIGGIYPGNGATSYNQKFKGKATLTADKSSSTAYMQLSSLTSEDSAVYYCARSGLRAMDYWGQGTSVTVSS VL: QIVLTQSPAIMSASPGEKVTMTCSASSSVSYMYWYQQKTGSSPRLLIYDTSNLASGVPVRFSGSGSGTSYSLTISRMEAEDAATYYCQQWSSYPYTFGGGTKLEIK
Response: 8.50

Request: # repeat for 104G12E12G2 (antibody, V domains shown, Mouse monoclonal antibody; also called mouse anti-human TIGIT monoclonal antibody 104G12E12G2) VH: EVQLQQSGPELVKPGASVKISCKASGYSFTGSYIHWVKQNHVKTLEWIGRINPHNGPTSYNQNFKGKASLTVDLSSSTAYMEVHSLTSEDSAVYYCVRYDGYYGGALDYWGQGTSVTVSS VL: DIQMTQSPSSLSASLGERVSLTCRASQEISGYLSWLQQKPDGTIKRLIYAASTLDSGVPKRFSGSRSGSDYSLTISSLESEDFADYYCLQYASYPYTFGGGTKLEIK
Response: 9.14

Hello, the source for this data is patent US20210095028A1, in case you need it.
